The values you see were collected from ChEMBL document CHEMBL1201862.

biological target: Microphthalmia-associated transcription factor (Homo sapiens); assay: reducers of TRPM1 reporter luminescence, concentration series – cell-based, SK-MEL-5, cherry-picked, set 3, MITF inhibitor project, dose response (AID 493073); format: functional;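 note: SK-MEL-5 melanoma cells with luciferase driven by the MITF target TRPM1 promoter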
Sequence (O75030 whole entry): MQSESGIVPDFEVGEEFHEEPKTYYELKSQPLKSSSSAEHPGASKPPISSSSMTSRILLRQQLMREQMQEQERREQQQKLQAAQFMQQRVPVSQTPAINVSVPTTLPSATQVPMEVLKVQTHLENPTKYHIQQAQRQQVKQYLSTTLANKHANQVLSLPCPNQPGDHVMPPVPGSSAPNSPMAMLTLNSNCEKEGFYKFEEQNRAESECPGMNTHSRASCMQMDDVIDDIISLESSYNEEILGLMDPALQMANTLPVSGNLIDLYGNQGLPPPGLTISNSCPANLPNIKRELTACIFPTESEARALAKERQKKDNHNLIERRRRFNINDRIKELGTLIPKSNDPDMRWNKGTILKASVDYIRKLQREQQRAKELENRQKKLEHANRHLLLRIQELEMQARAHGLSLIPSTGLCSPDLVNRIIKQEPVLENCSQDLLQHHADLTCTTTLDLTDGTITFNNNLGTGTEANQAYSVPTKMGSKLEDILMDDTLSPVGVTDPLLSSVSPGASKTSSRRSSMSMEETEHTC
Active and inactive are the calls of the source.
Result type: AC50

Molecule	Tgt	AC50
CCn1c(=O)c([N+](=O)[O-])c(Cl)c2ccccc21	Microphthalmia-associated transcription factor (Homo sapiens)	7.21 µM (active)
CC1CCC/C=C/C(=O)c2c(O)cc(O)cc2CC(=O)O1 (centres undefined)	Microphthalmia-associated transcription factor (Homo sapiens)	5.79 µM (active)
Cc1ccc(NC(=O)c2cc(N3C(=O)C=CC3=O)ccc2N2CCOCC2)cc1	Microphthalmia-associated transcription factor (Homo sapiens)	11.6 µM (active)

Next item in the queue.
stdin: Please report the measured AC50 for CCOc1ccc2nc(C)cc(Nc3cccc([N+](=O)[O-])c3)c2c1 tested on Microphthalmia-associated transcription factor (Homo sapiens).
stdout: 17.8 µM (active)

* * *

target: FAD-linked sulfhydryl oxidase ALR (Homo sapiens, UniProt P55789); test: ALR-catalysed DTT oxidation blockers – biochemical, H2O2 detection, luminescence, cherry-pick, dose response (AID 493248)
Sequence (P55789 whole entry): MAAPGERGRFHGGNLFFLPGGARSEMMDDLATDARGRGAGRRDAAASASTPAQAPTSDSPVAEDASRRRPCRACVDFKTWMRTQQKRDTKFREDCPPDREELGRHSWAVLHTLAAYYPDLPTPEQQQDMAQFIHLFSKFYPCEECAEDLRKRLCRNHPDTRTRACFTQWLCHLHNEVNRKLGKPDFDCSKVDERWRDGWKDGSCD
Activity calls are given as the source filed them.
AC50 by entry:

A selection of reference data follows.
Compound	Result
c1ccc(Nc2ccccc2Nc2ccccn2)nc1	773 nM (active)
COc1ccc(NC2CCCN(C(=O)CCc3cn[nH]c3)C2)cc1 (stereo not given)	2190 nM (active)
Cc1ccc(NC2c3ncccc3C(=O)N2C2CCCCC2)cc1 (stereo not given)	2070 nM (active)
CCNc1nc(NCC)nc(N/N=C/c2ccc(N(C)C)cc2)n1	2330 nM (active)
COc1ccc(/C=N/NC(=O)c2cc[nH]n2)cc1CSc1ccccn1	680 nM (active)
CC(=O)NCCc1c(C)n(Cc2ccccc2)c2ccccc12	3020 nM (active)
CCN(CCNC(=O)c1cccc(N2CCCC2=O)c1)c1ccccc1	508 nM (active)
CCc1noc(C)c1C(=O)Nc1cc(Cl)ccc1N1CCCC1	1150 nM (active)

stdin: Identify AC50 associated with the compound CC1CC(N(C(=O)c2ccco2)c2ccccc2)c2ccccc2N1 (stereo not given)
stdout: 465 nM (active)

* * *

target: UniProt Q9UBT2; assay: blockers of UBC9-mediated SUMO conjugation – biochemical, AlphaScreen, SUMOylation inhibitor project, confirmation (AID 2018); assay type: functional
The source made the active and inactive calls.
List of IC50 values.

Compound	Result
COc1ccc(-c2nc3cc([N+](=O)[O-])ccc3[nH]2)cc1	35 µM (active)
CCCN(C(=O)c1cc2c(s1)CCC2)c1c(N)n(Cc2ccccc2)c(=O)[nH]c1=O	16.7 µM (active)
COc1cccc(NS(=O)(=O)c2ccc3c(c2)C2C=CCC2C(c2ccc(C(=O)O)cc2)N3)c1 (centres undefined)	2.15 µM (active)

Now turn to the next compound.
stdin: Specify measured IC50 for O=C(NN1C(=O)/C(=C/C=C/c2ccco2)SC1=S)c1ccncc1 .
stdout: 0.53 µM (active)

* * *

Target: Streptokinase A (Streptococcus pyogenes serotype M1, UniProt P10520)
Sequence (P10520 whole entry): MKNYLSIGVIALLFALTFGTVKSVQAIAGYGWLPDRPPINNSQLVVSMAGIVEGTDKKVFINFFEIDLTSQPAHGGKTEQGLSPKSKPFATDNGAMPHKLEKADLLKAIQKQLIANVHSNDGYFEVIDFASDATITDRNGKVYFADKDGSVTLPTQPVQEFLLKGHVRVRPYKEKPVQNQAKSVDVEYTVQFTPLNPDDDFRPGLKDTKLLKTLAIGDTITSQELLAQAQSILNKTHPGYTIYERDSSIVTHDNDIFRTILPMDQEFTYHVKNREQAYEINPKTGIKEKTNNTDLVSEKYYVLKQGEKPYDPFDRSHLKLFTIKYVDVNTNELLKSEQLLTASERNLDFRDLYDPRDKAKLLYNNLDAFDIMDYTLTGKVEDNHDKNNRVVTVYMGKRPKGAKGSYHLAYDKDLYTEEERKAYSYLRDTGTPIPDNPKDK
Test: viability-normalized secreted streptokinase activity reduction – plasminogen activation absorbance, OD405, dose response (AID 1914);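 note: secreted streptokinase activity via plasminogen activation per viability signal from cell pellet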
Type: functional, Streptococcus pyogenes M1 GAS
Calls of active or inactive are those of the source.
Result type: EC50

Nc1nc2ccccc2n1/N=C/c1ccc(-c2ccccc2)o1 > 150 µM (not active)

stdin: Given the compound COc1ccc(/C=C/C(=O)NC(=S)NNC(=O)c2cc(OC)c(OC)c(OC)c2)cc1OC , write its reported EC50.
stdout: > 150 µM (not active)

stdin: Provide measured EC50 value, entry: COc1ccccc1-c1c[nH]nc1-c1ccc(OCc2ccc(F)cc2)cc1O
stdout: 76.6 µM (active)

stdin: Annotate the compound CC1(C)CN=C(Nc2nc3ccccc3s2)S1 with its measured EC50.
stdout: > 150 µM (not active)

stdin: Annotate the compound N#Cc1c(-c2ccccc2)c(-c2ccccc2)nn(CC(=O)NNC(=O)Nc2ccc(Cl)c(Cl)c2)c1=O with its measured EC50.
stdout: 4 µM (active)

stdin: Using known records, supply EC50 for COc1ccc(NC(=O)c2cc3cccc(OC)c3o/c2=N\c2ccc(C(=O)O)cc2)cc1OC
stdout: > 150 µM (not active)
